The origin of these recorded values is paper PMC10841833.

# TARGET SYSTEM: citron kinase (CIT/CRIK) (Homo sapiens, UniProt O14578)
# Sequence (O14578 whole entry): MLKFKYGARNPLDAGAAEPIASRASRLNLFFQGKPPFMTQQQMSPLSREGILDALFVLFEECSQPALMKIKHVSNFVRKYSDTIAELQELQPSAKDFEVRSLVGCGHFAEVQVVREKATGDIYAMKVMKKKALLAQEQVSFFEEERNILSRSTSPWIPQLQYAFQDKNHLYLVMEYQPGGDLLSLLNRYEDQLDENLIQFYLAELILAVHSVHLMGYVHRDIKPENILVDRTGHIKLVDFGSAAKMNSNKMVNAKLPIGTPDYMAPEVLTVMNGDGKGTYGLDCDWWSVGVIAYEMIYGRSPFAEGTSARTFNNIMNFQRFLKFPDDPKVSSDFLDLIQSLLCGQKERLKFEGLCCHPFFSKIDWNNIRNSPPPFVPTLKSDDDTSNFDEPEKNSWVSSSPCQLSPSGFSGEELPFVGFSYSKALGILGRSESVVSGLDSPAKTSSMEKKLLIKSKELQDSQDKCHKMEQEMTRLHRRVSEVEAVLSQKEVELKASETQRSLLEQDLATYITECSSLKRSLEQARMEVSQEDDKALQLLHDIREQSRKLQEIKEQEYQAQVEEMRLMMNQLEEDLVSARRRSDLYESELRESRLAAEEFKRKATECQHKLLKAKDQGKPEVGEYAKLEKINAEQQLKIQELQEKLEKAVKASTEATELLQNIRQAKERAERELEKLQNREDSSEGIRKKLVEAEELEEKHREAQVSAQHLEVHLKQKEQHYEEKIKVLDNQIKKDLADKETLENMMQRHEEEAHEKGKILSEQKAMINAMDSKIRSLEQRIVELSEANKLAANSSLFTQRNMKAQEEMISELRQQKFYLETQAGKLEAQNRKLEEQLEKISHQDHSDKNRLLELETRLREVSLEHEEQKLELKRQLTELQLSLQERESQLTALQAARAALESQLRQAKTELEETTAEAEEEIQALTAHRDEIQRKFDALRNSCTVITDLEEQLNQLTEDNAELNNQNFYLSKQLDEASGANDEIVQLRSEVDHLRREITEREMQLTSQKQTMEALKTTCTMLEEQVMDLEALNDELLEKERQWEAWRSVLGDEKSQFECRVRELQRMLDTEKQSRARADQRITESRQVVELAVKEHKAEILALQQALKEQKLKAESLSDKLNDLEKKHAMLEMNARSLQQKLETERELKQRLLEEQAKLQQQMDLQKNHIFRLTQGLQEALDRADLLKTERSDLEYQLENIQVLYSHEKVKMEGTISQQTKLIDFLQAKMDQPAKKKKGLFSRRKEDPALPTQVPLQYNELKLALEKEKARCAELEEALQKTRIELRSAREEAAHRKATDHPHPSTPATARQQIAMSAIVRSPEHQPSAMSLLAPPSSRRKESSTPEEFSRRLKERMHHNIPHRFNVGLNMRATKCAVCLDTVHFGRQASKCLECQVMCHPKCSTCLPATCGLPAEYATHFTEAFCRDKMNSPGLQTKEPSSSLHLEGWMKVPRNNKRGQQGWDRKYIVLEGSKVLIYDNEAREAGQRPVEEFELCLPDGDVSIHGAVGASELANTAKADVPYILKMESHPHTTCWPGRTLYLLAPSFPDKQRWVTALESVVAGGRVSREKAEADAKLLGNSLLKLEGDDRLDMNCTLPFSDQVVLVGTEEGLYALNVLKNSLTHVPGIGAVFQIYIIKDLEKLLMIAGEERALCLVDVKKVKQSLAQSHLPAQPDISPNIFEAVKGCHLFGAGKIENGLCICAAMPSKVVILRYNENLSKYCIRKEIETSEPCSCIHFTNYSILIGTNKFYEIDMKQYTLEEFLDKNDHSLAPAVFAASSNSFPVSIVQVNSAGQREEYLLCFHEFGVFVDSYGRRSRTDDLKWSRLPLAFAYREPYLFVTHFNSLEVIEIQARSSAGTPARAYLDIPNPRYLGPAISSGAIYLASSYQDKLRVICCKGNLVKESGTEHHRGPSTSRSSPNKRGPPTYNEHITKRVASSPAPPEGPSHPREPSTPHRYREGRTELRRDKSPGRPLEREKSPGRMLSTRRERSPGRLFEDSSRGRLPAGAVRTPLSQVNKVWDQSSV
# EXPERIMENT DESCRIPTION: in vitro kinase assay
pIC50: −log10 of the molar value.

MOLECULE | pIC50
CC(=O)c1cnc2ccc(-c3cc(Cl)c(O)c(Cl)c3)nc2c1N[C@H]1CC[C@H](CN(C)C)CC1 [OTS-167] | ~8.00
